B1: STEAP1 (parent)
chain: WMLTRKQFGLLSFFFAVLHAIYSL

# Variants of: B1
# assay_protocol: protein stability index of a GFP-peptide fusion (GPS, HEK-293T) (PSI 1-6); higher = more stable;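 also: lentivirally expressed fusions sorted by FACS into six bins by GFP to DsRed ratio, PSI derived from sequencing read proportions per bin multiplied by bin number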
# conditions: c terminus: a fixed tail appended
I would appreciate it if you labelled entries 1 when protein stability index is 2 or higher, otherwise -1.

A20D :: 1

Q: I'd appreciate it if you could say whether `W1H` has protein stability index at least equal to 2.
Result: 1

Q: I'd appreciate it if you could say whether `L24H` has protein stability index at least equal to 2.
Result: -1

Q: I'd appreciate it if you could say whether `F14A` has protein stability index at least equal to 2.
Result: 1

Q: I'd appreciate it if you could say whether `S12R` has protein stability index at least equal to 2.
Result: 1
